# System: SNB-19 CNS
# EXPERIMENT: NCI-60 one-dose screen, 48 h (100 = growth as untreated, 0 = no growth, -100 = all killed)
# CONDITIONS: 10 µM
Compounds without any hit were thinned out: in the full panel of roughly 83,000, 20% have a hit.
Use met when the recorded growth is no lower than 30%; use not met when it is lower.

CCN(CC)CCCOc1cccc2c1C(=O)c1cccc(OCCCN(CC)CC)c1C2=O = met

Request: Could you verify whether the entry COc1ccc(N=Nc2cc(OC)c(OC)c(OC)c2)cc1 shows growth of no less than 30%?
Result: met

Request: Try CC[C@@H](C(=O)[C@@H](C)[C@@H](O)[C@H](C)[C@@H]1O[C@@H]([C@@H](CC)C(=O)O)CC[C@@H]1C)C1O[C@]2(C=CC(=O)[C@]3(CC[C@@](C)([C@H]4CC[C@](O)(CC)[C@H](C)O4)O3)O2)[C@H](C)C[C@@H]1C (stereo not given in full) next.
Result: not met

Request: Entry to check: O=C(CCCSc1nc(-c2ccc(Cl)cc2)cc(-c2ccc(Cl)cc2)n1)NO
Result: not met

Request: Next up: COc1cc(/C=C/c2cc(/C=C/c3ccc(O)c(OC)c3)nc(N)n2)ccc1O
Result: not met

----------
# System: SF-295 CNS
# EXPERIMENT: NCI-60 one-dose screen, 48 h
# CONDITIONS: 10 µM
This is part of a sample that, as a whole, favours compounds with a hit. Of some 83,000 tested, about 20% had one in any assay. The source made the active and inactive calls. Rule for the calls: active = growth percent below 10; inactive = the rest.
Allowed answers: true (1) (active), false (0) (inactive)

Recorded results for 6 compounds are shown here.
Cn1cnc([N+](=O)[O-])c1/C=C1\Oc2ccc(Br)cc2C1=O = false (0)
COc1cc(-c2nn(-c3ccc(NC(=O)NCCNS(=O)(=O)c4ccc(F)cc4)cc3)cc2-c2ccncc2)ccc1Cl = true (1)
O=C(CC(CC(=O)c1ccccc1)c1ccccc1O)c1ccccc1 = false (0)
COc1cccc(C2C(C#N)=C(N)Oc3cc(N)ccc32)c1 (centres undefined) = true (1)
CCN(CC)CCCC(C)N=C(C1=C(C(=NC(C)CCCN(CC)CC)c2cccc(OC)c2)C(=O)NC1=O)c1cccc(OC)c1 (centres undefined) = true (1)
COc1cc2c3c(n(C4CCN(C)CC4)c(=O)c2cc1OC)-c1cc2c(cc1C3=O)OCO2 = false (0)

Request: Lab log entry: COc1ccc(/C=C2\CCCC3C2=Nc2ccccc2NC3c2ccc(OC)cc2)cc1 (centres undefined) — outcome as called in the assay?
Result: false (0)

Request: Please do the same for O=c1[nH]c(=O)n(C2C[C@H](O)[C@@H](CO)O2)cc1C(F)(F)F (some centres undefined) as well.
Result: false (0)

Request: Can you check O=S(=O)(Oc1ccc(-c2ccc3sccc3c2)cc1)c1ccccc1 next?
Result: false (0)

----------
# System: HOP-62 NSCLC
# EXPERIMENT: NCI-60 one-dose screen, 48 h
# CONDITIONS: 10 µM
Compounds without any hit were thinned out: in the full panel of roughly 83,000, 20% have a hit. Active and inactive are the calls of the source. Rule for the calls: active = growth percent below 10; inactive = the rest.
Parameter call: string, one of active, inactive

Solved cases below.
COc1cc2c(cc1OC)C(C(CCCCCC(CCC(C)C)C1NCCc3cc(OC)c(OC)cc31)CCC(C)C)NCC2 (centres undefined) = active
O=C1c2ccccc2C(=O)N1CCCCNc1ccccc1 = inactive
Nc1ncnc2c1ncn2C1(CO)OCC(O)C(O)C1O (centres undefined) = inactive
O=C(N/N=C/c1c(Cl)cccc1Cl)c1ccccc1Nc1cccc(C(F)(F)F)c1 = inactive
O=C1c2ccccc2C(=O)c2c1ccc(C(Br)Br)c2[N+](=O)[O-] = inactive

Request: Per the records of this test, what outcome belongs to COc1cc(NC(=O)Nc2cnc(Nc3ccc(N4CCOCC4)cc3)nc2Oc2cccc(OC)c2)cc(OC)c1 ?
Result: inactive

Request: Param item: C=CCSC(CC)(CC)C(=O)NC
Result: inactive

Request: Also Clc1ccc(Cc2ccncc2)cc1 ?
Result: inactive

Request: Would you kindly repeat that for CS(=O)(=O)c1nccc(-c2c(-c3cccc(OCc4ccccc4)c3)nc3sccn23)n1 ?
Result: inactive

Request: Quick one: C[n+]1c2ccccc2nc2ccccc21
Result: active

Request: Now consider O=C(O)c1ccc(-n2cc(CNc3ccc(Oc4ccccc4)cc3)c(-c3ccccc3)n2)cc1 .
Result: inactive

----------
Known growth of a selection of compounds
# Tested on: UACC-257 melanoma
# EXPERIMENT: NCI-60 one-dose screen, 48 h (100 = growth as untreated, 0 = no growth, -100 = all killed)
# CONDITIONS: 10 µM
Compounds without any hit were thinned out: in the full panel of roughly 83,000, 20% have a hit.
Report the value in % with no unit label.

The examples below pair each entry with its known result.
CN(C)CCCOc1cccc(NC2=C(Cl)C(=O)C(Nc3cccc(OCCCN(C)C)c3)=C(Cl)C2=O)c1 = -90.1
O=C(CI)OCC(COC(=O)CI)OC(=O)CI = 76.5
C(=N\Nc1ncnc2sc3c(c12)CCNC3)/c1cccc2ccccc12 = 104

Request: What growth value was documented for this compound, CC(C)(C)c1ccc(S(=O)(=O)N[C@H]2CC[C@H]3[C@@H]4CCc5cc(OS(=O)(=O)O)ccc5[C@H]4CC[C@]23C)cc1 ?
Result: 68.2

----------
We begin with a simple list: items and their reported growth.
# Test system: HT29 colon
# EXPERIMENT: NCI-60 one-dose screen, 48 h (100 = growth as untreated, 0 = no growth, -100 = all killed)
# CONDITIONS: 10 µM
Compounds without any hit were thinned out: in the full panel of roughly 83,000, 20% have a hit.
# number only, unit % dropped from output

c1ccc(/C(=N\Nc2ccc3ccccc3n2)c2ccccn2)cc1 = 26.2
C/C=C/CSC(C)(C)C(=O)NC = 98.1

Here's the next entry for you.
Request: Consider the compound shown here: CCCCCOC(=O)Nc1nc(=O)n(C2O[C@H](C)[C@@H](O)[C@H]2O)cc1F (stereo partly drawn) What is its recorded growth?
Result: 99.9

----------
# System: SR leukemia
# EXPERIMENT: NCI-60 one-dose screen, 48 h
# CONDITIONS: 10 µM
About 83,000 compounds went through this panel and 20% of them were active in at least one assay; those are over-represented in the sample as a whole. Active and inactive are the calls of the source. Rule for the calls: active = growth percent below 10; inactive = the rest.
Your response should consist of one outcome taken from active, inactive

Some solved entries appear below for comparison.
O=[N+]([O-])c1cccc(/C=N/NC(=S)NC23CC4CC(CC(C4)C2)C3)c1 = inactive
Cc1nc2n(c(=O)c1CCN1CCC(c3noc4cc(F)ccc34)CC1)CCC[C@@H]2O = inactive
CCC(c1ccc(OC)cc1)C(CC)c1ccc(O)c(CN2CCN(C)CC2)c1 (stereo unspecified) = active

Request: Identify the outcome logged in this assay for the compound shown: CCOC(=O)C1C(C(=O)OCC)C2C(=O)C3C(C(=O)OCC)C(C(=O)OCC)C3C(=O)C12 (stereo unspecified)
Result: inactive

Request: What do you have for CN(C)c1ncnc2c1nnn2C1OC(CO)C(O)C1O (stereo unspecified) ?
Result: inactive

Request: Can you handle CC(C)(C)c1ccc(S(=O)(=O)N[C@H]2CC[C@H]3[C@@H]4CCc5cc(O)ccc5[C@H]4CC[C@]23C)cc1 next?
Result: inactive

----------
# System: MOLT-4 leukemia
# EXPERIMENT: NCI-60 one-dose screen, 48 h
# CONDITIONS: 10 µM
This is part of a sample that, as a whole, favours compounds with a hit. Of some 83,000 tested, about 20% had one in any assay. Active and inactive are the calls of the source. Rule for the calls: active = growth percent below 10; inactive = the rest.
Respond with a class label; see active, inactive

Please review the entries below; each comes with its answer.
Cc1[nH]c2ccccc2c1/C=N/Nc1ncnc2sc3c(c12)CCN(CC(=O)OC(C)(C)C)C3 = inactive
N#CC1=C(N)Oc2cc(N)ccc2C1c1cccnc1 (configuration not stated) = inactive
COc1ccc2nc(-c3ccc(Cl)cc3)cc(-c3nnc(SC/C(=N\O)c4ccccc4)n3-c3ccccc3)c2c1 = inactive
CC1C(=NC(=O)c2cnccn2)C(C)C(c2ccc(Cl)cc2)NC1c1ccncc1 (configuration not stated) = inactive
COc1cc(-c2csc(NC(=O)Nc3cc(C(F)(F)F)cc(C(F)(F)F)c3)n2)cc(OC)c1OC = inactive
CN1C(C(=O)Nc2ccccn2)=C(O)c2sc(Cl)cc2S1(=O)=O = inactive

Request: Would you mind telling me which call this test gave O=C(O)c1ccc(-n2cc(CNc3ccc(Cl)cc3)c(-c3ccccc3)n2)cc1 ?
Result: inactive

Request: Also check CC(CN(C)C)Oc1ccc(OC(C)CN(C)C)c2c1C(=O)c1ccccc1C2=O (configuration not stated)
Result: active

----------
# System: UO-31 renal
# EXPERIMENT: NCI-60 one-dose screen, 48 h
# CONDITIONS: 10 µM
Compounds without any hit were thinned out: in the full panel of roughly 83,000, 20% have a hit. Activity calls are given as the source filed them. The calls were made as follows: active = growth percent below 10; inactive = the rest.
Select the matching outcome among active, inactive

// below: answered compounds
CSc1ccc(-c2cc(-c3ccc(NC(=O)CCCN4CCCC4)cc3)nc(-c3ccc(NC(=O)CCCN4CCCC4)cc3)c2)cc1 = inactive
N#CC1=C(N)Oc2cc(N)ccc2C1c1cccnc1 (centres undefined) = inactive
CCCCN(CCCC)C(=O)[C@H](CC)[C@@H]1CC[C@@H](C)[C@@H]([C@H](C)[C@@H](O)[C@@H](C)C(=O)[C@H](CC)C2O[C@]3(C=CC(=O)[C@]4(CC[C@@](C)([C@H]5CC[C@](O)(CC)[C@H](C)O5)O4)O3)[C@H](C)C[C@@H]2C)O1 (some centres undefined) = inactive
COc1cc2cc(Oc3ccc(NC(=O)c4cc(C(F)(F)F)cc(C(F)(F)F)c4)cc3)c(C)nc2cc1OC = inactive
COc1ccc2c(c1)C(=O)/C(=C/c1cccc(OCC(=O)c3ccc([N+](=O)[O-])cc3)c1)CO2 = active
N#Cc1c(-c2ccc(Cl)cc2)cc(-c2cc(O)ccc2O)nc1N = inactive
COc1cc2cc(Oc3ccc(NC(=O)c4cccc(C(F)(F)F)c4)cc3)c(C)nc2cc1OC = inactive
Cc1c2c(nn1C(=O)c1nn(-c3ccc(Cl)cc3)cc1O)-c1ccccc1CC2 = inactive

Request: How was Nc1c(Br)cc(Br)c2c1[nH]c(=O)c1ccccc12 classified in this test?
Result: inactive

Request: Moving on to CC(C)(C)c1nn(-c2ccccc2)c2c1CC1(CN2Cc2ccc(Cl)cc2)C(=O)c2ccccc2C1=O
Result: inactive

Request: And for NS(=O)(=O)c1ccc(N2N=C(c3ccccc3)CCC2=O)cc1 ?
Result: inactive

Request: Could you do the same for CCCCC1(O)CCCCC1 , please?
Result: inactive

Request: Same lookup for O=C1NC(=O)c2c(CCCSc3nc4ccccc4c(=O)n3CCc3ccccc3)cccc21 , please.
Result: inactive
